# System: lipase
# experimentNotes: Lipase activity of stool-free, urine-free pure lipase composition with lipase-inhibiting agent (Examples VI, VII)
# Type: biochemical
# reportedConditions: Example VI; pure lipase composition; 50 mM
Outcome: Satisfied for % REDUCTION LIPASE ACTIVITY of at least 90%; Not satisfied for anything lower.

compound	cat
[Cl-].[Cl-].[Zn+2] [ZnCl2, zinc chloride]	Satisfied
O.O.O.O.O.O.[Cl-].[Cl-].[Cl-].[Fe+3] [FeCl3.6H2 O, iron(III)chloride hexahydrate]	Satisfied
[Cl][Co][Cl] [CoCl2, cobalt chloride]	Not satisfied
O=S(=O)([O-])[O-].[Cu+2] [CuSO4, copper sulfate]	Not satisfied

Exercise: Could you verify whether the entry [Cl][Sn][Cl] [SnCl2, tin(II)chloride] shows % REDUCTION LIPASE ACTIVITY of no less than 90%?
Solution: Satisfied

----------
LIPASE ACTIVITY values for the molecules below.
# Test system: lipase
# experimentNotes: Lipase activity of stool-free, urine-free pure lipase composition with lipase-inhibiting agent (Examples VI, VII)
# Assay type: biochemical
# Parameters: unit not given here
# reportedConditions: Example VII; pure lipase composition; 100 mM (ZnO, ZnCO3, Zn undecylenate patched as suspensions); control 36,750
# Experimental: For example, the method of commerce available from Harleco® diagnostics utilizes the activity of lipase, i.e., the digestion of triglycerides to diglycerides and monoglycerides, glycerol and free fatty acids. After this digestion is allowed to proceed at the optimal buffered pH, the turbidity is measured spectrophotometrically at 400 nanometers. […]

Please review the following examples before continuing.
molecule	LIPASE ACTIVITY
[O]=[Zn] [ZnO, zinc oxide, reference compound]	33,000
C=CCCCCCCCCC(=O)[O-].C=CCCCCCCCCC(=O)[O-].[Zn+2] [Zn undecylenate]	10,080
O=C([O-])[O-].[Zn+2] [ZnCO3, zinc carbonate, reference compound]	35,000

# ---- query molecule ----
Considering [Cl-].[Cl-].[Zn+2] [ZnCl2, zinc chloride] , its LIPASE ACTIVITY with lipase was recorded as 1,250

----------
# Tested on: lipase
# experimentNotes: Lipase activity of stool-free, urine-free pure lipase composition with lipase-inhibiting agent (Examples VI, VII)
# Type: biochemical
# Set-up: unit not given here
# reportedConditions: Example VI; pure lipase composition; 100 mM; lipase control 40,320
LIPASE ACTIVITY values for the molecules below.
Lab note: record the figure alone, no unit after it.

molecule	LIPASE ACTIVITY
O.O.O.O.O.O.[Cl-].[Cl-].[Cl-].[Fe+3] [FeCl3.6H2 O, iron(III)chloride hexahydrate]	0

Briefly, LIPASE ACTIVITY measured for [Cl-].[Cl-].[Zn+2] [ZnCl2, zinc chloride] : 750

----------
LIPASE ACTIVITY values for the molecules below.
# Tested on: lipase
# experimentNotes: Lipase activity of stool-free, urine-free pure lipase composition with lipase-inhibiting agent (Examples VI, VII)
# Type: biochemical
# Set-up: unit not given here
# reportedConditions: Example VI; pure lipase composition; 50 mM; lipase control 40,320

Please review the following examples before continuing.
molecule	observed
[Cl-].[Cl-].[Zn+2] [ZnCl2, zinc chloride]	1,500
[Cl][Sn][Cl] [SnCl2, tin(II)chloride]	3,000
O=S(=O)([O-])[O-].[Cu+2] [CuSO4, copper sulfate]	18,500

Briefly, LIPASE ACTIVITY measured for [Cl][Co][Cl] [CoCl2, cobalt chloride] : 23,750

Briefly, LIPASE ACTIVITY measured for O.O.O.O.O.O.[Cl-].[Cl-].[Cl-].[Fe+3] [FeCl3.6H2 O, iron(III)chloride hexahydrate] : 500

----------
LIPASE ACTIVITY values for the compounds below.
# Tested on: lipase
# experimentNotes: Lipase activity of stool-free, urine-free pure lipase composition with lipase-inhibiting agent (Examples VI, VII)
# Format: biochemical
# Set-up: unit not given here
# reportedConditions: Example VI; pure lipase composition; 100 mM; lipase control 40,320

compound	observed
[Cl][Co][Cl] [CoCl2, cobalt chloride]	7,750
[Cl][Sn][Cl] [SnCl2, tin(II)chloride]	1,250

# ---- query compound ----
Briefly, LIPASE ACTIVITY measured for O=S(=O)([O-])[O-].[Cu+2] [CuSO4, copper sulfate] : 16,500
